# Method description: MTT cell viability / cytotoxicity on normal fibroblasts
# Type: cell-based, mouse
# Measurement parameters: mouse, NCTC clone 929 (L929) mouse fibroblast cells, 50 µg/mL, 48h
# Source text: Merck chemicals were utilized. Untreated cells were used as control, considered 100% viable cells.
Reported metric: viability at 48 h, 50 µg/mL (%)

Cc1nn(CNc2ccccc2Cl)c(C)c1[N+](=O)[O-] : 80.5
Cc1nn(CNc2cccc(Cl)c2)c(C)c1[N+](=O)[O-] : 63.2
Cc1nn(CNc2ccc(F)cc2)c(C)c1[N+](=O)[O-] : 47.5
Cc1nn(CNc2ccc(I)cc2)c(C)c1[N+](=O)[O-] : 88.2
Cc1nn(CNc2ccc(Br)cc2)c(C)c1[N+](=O)[O-] : 81.5
Cc1nn(CNc2ccc(Cl)cc2)c(C)c1[N+](=O)[O-] : 31.6
